This section presents compounds with their documented pIC50 values.
# Method notes: Inhibition of Metallo-beta-lactamase IMP-1 (unknown origin) using FC5 as fluorescence substrate preincubated for 10 mins followed by substrate addition by microplate reader analysis
By convention, pIC50 is the negative base-10 log of a molar concentration.

Solved entries:
Chemical structure: O=C(O)c1nccn1CCCc1ccccc1
pIC50: 4.97
--
Chemical structure: O=C(O)c1ncsc1CCc1ccccc1F
pIC50: 3.92

What the record says about `O=C(O)c1nccn1CCc1cccc(F)c1` : pIC50 is 3.36

// pIC50 value for `O=C(O)c1ncsc1CCc1ccc(C(F)(F)F)cc1` : 4.06

----------
Collected IC50 values appear next to each entry.
# Target system: Metallo-beta-lactamase type 2 (Bacteria)
# Sequence (C7C422 whole entry, the tested form may be a part): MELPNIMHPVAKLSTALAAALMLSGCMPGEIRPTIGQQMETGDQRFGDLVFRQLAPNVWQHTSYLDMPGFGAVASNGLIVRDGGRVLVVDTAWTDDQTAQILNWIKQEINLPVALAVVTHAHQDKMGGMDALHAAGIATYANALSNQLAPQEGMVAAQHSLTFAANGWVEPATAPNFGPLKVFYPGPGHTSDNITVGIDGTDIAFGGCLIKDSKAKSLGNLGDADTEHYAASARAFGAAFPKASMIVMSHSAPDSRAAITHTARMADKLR
# Method notes: Inhibition of NDM-1 (1 to 270 residues) (unknown origin) expressed in Escherichia coli Transetta (DE3) using FC5 as fluorescence substrate preincubated for 10 mins followed by substrate addition by microplate reader analysis
Response body: numeric value in µM, unit text excluded.

Worked examples, 2 compounds total:
Chemical structure: O=C(O)c1ncsc1CCc1ccccc1
IC50 [µM]: 82.4
//
Chemical structure: O=C(O)c1nccn1CCc1ccccn1
IC50 [µM]: 18.9

// moving on: another record for IC50
Lab note: `O=C(O)c1ncsc1Cc1ccccc1` gave IC50 of 43.7

----------
# Method notes: Inhibition of Metallo-beta-lactamase IMP-1 (unknown origin) using FC5 as fluorescence substrate preincubated for 10 mins followed by substrate addition by microplate reader analysis
Listed next: entries and their corresponding IC50.
Please reply with the bare figure in µM and do not write the unit itself.

Compound: O=C(O)c1nccn1CCc1cccc2ccccc12
IC50 [µM]: 50.9

Compound: O=C(O)c1nccn1CCc1ccc(-c2ccc3ccccc3c2)cc1
IC50 [µM]: 202

Compound: O=C(O)c1nccn1Cc1ccccc1
IC50 [µM]: 32.1

Compound: O=C(O)c1ncsc1Cc1ccccc1
IC50 [µM]: 7.8

Compound: COc1cccc(CCc2scnc2C(=O)O)c1
IC50 [µM]: 61.6

IC50 reading for `COc1ccc(CCn2ccnc2C(=O)O)cc1OC` : 326

Lab note: `O=C(O)c1ncsc1CCc1cccc(C(F)(F)F)c1` gave IC50 of 112

Query `COc1ccc(CCn2ccnc2C(=O)O)cc1` yields IC50 of 4.48

Kindly note the recorded IC50 for `O=C(O)c1nccn1CCc1cccs1` , which is 7.97

Entry `Nc1ccc(CCn2ccnc2C(=O)O)cc1` , IC50 reported as 4.9

For this compound ( `O=C(O)c1nccn1CCc1ccc2ccccc2c1` ), measured IC50 is 46.8

IC50 recorded for this compound, CC(Cn1ccnc1C(=O)O)c1ccccc1 (centres undefined) , is 261

----------
# Method notes: Inhibition of Metallo-beta-lactamase VIM-5 (unknown origin) using FC5 as fluorescence substrate preincubated for 10 mins followed by substrate addition by microplate reader analysis
Quantity: IC50 (nM)
Please respond with the number in nM and leave the unit unwritten.

Use the examples below as a reference point.
Chemical structure: O=C(O)c1ncsc1CCc1cccc(C(F)(F)F)c1
Quantitative result: 2690

Chemical structure: COc1ccc(CCn2ccnc2C(=O)O)cc1OC
Quantitative result: 15100

Chemical structure: O=C(O)c1nccn1CCOc1ccccc1
Quantitative result: 520

Query `O=C(O)c1nccn1CCc1ccc(Br)cc1` yields IC50 of 100

# IC50 (compound: `O=C(O)c1nccn1CCNS(=O)(=O)c1ccccc1` ) is 62700

Entry `O=C(O)c1nccn1CCc1ccc(-c2cccc3ccccc23)cc1` , IC50 reported as 89

IC50 recorded for this compound, `O=C(O)c1nccn1CCc1ccccc1` , is 1590
